Tested Target: Steroidogenic factor 1 (Homo sapiens) (UniProt Q13285)
Sequence (Q13285 whole entry, looked up): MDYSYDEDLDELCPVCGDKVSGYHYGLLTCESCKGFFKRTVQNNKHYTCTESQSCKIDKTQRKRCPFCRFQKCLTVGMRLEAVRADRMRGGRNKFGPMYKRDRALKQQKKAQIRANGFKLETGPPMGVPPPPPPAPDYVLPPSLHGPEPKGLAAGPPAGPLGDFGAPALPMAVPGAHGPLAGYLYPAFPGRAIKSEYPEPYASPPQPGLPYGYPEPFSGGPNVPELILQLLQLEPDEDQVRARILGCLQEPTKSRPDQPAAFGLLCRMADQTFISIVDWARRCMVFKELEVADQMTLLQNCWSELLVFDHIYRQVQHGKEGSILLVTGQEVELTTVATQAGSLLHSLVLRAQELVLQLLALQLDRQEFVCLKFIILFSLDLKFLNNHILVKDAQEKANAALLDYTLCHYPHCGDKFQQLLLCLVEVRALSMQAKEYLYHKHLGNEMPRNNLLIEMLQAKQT
Run Description: SF1 (NR5A1) inverse agonists, counter-screen for LRH-1 inverse agonist project, cell-based, luminescence, high throughput (AID 651614);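 further: cells cotransfected with StAR promoter reporter and SF1 expression vector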
Cond: cell-based SF1 luciferase reporter, at 3.6 µM
The source made the active and inactive calls. No stated cut-off is given here; in the data, active means inhibition above about 44%; inactive means the rest.
Outcome codes: active, inactive

| Compound | Label Value |
| --- | --- |
| CC(C(=O)N1CCCc2c1c(=O)oc1ccc(O)cc21)N1CCc2ccccc2C1 (stereo not drawn) | inactive |
| CC(=O)N1CCc2c(sc(NC(=O)c3ccc([N+](=O)[O-])o3)c2C#N)C1 | active |
| O=C(c1ccccc1)c1nn(-c2ccc(Cl)cc2)c(=O)cc1C(F)(F)F | active |
| O=C(NCc1ccco1)c1cccc(NC(=O)c2ccccc2)c1 | active |
| CC(=O)Nc1ccc(N=c2cc([N+](=O)[O-])cc(Cl)n2O)cc1 | active |
| CO/N=C/C(=N\Nc1cc(OC)cc(OC)c1)C(=O)c1ccccc1 | active |
| O=C(NC1CCCCC1)C(c1cccnc1)N(C(=O)CCl)c1ccccc1Cl (stereo not drawn) | active |
| Cc1[nH][nH]c(=O)c1N=Nc1ccc(S(N)(=O)=O)cc1 | active |
| COc1ccc(C(=O)NCCN(C)C)c2nc3ccccc3cc12 | active |
| CCOc1ccc(S(=O)(=O)Nc2cc(OC)ccc2OC)cc1 | active |
| COc1ccc(NC(=O)CSc2nc(O)cc(=O)n2-c2ccccc2OC)cc1 | inactive |
| CCOc1ccc(OCCC(=O)OCC(=O)Nc2ccc3c(c2)OCCO3)cc1 | inactive |
| O=c1c2ccc(Cl)cc2nc(-c2cccc(C(F)(F)F)c2)n1O | inactive |
| CC1(C)CC2CC(C)(CN2S(=O)(=O)c2ccc(C(=O)Nc3ccc(S(=O)(=O)N4CCOCC4)cc3)cc2)C1 (stereo not drawn) | active |
| CCCOc1ccc(N)cc1N | inactive |
| CC(=O)Nc1ccc(C2=CC(=O)CC(C)(C)C2)cc1 | active |
| C=C(C(=O)c1ccccc1)C(NC(C)(C)C)c1ccccc1 (stereo not drawn) | active |
| NC(=S)NN=Cc1nccc2c(C(F)(F)C(F)(F)C(F)(F)F)cccc12 | active |
| O=C(COc1ccc(Cl)cc1Cl)Nc1ccccn1 | active |
| CCOc1ccc(-c2c[n+]3c(n2-c2ccccc2)CCCCC3)cc1 | active |
| Cc1cccc(-n2ncc3c(N(C)C4CCCCC4)ncnc32)c1 | active |
| Cc1cnc(NC(=O)CCCc2nc3ccccc3s2)s1 | inactive |
| Cc1cc(OCC(=O)Nc2cccnc2)c2c(C)c(C)c(=O)oc2c1 | active |
| NC(=Nc1nc(-c2ccccn2)cc2ccccc12)c1ccccn1 | active |
| CC(Nc1ncnc2sccc12)c1ccccc1 (stereo not drawn) | active |
| O=C(CSc1nc2ccc(F)cc2c(=O)n1-c1ccccc1)Nc1ccc2c(c1)CCC2 | active |
| Cc1ccc(NC(=O)CNNC(=O)c2cccc([N+](=O)[O-])c2)cc1[N+](=O)[O-] | inactive |
| COc1ccc(NC(=O)CN2C(=O)NC3(CCCc4ccccc43)C2=O)c(OC)c1 (stereo not drawn) | inactive |
| CCOC(=O)C(=CNc1ccc(NC2=NCC(C)S2)cc1)C(=O)OCC (stereo not drawn) | active |
| CC(=O)N1CCc2c(sc(NC(=O)CCS(=O)(=O)c3ccc(C)cc3)c2C#N)C1 | active |
| CCCC(=O)NC(c1ccc(C)cc1)c1ccc2cccnc2c1O (stereo not drawn) | active |
| Cn1cc(/C=C/c2cc[n+](C)cc2)c2cc(Cl)ccc21 | active |
| CC1(C)CC(N2CCN(c3ccccc3)CC2)=CC(=[N+]2CCCC2)C1 | active |
| COc1cccc2c1C(=O)c1c(O)c3c(c(O)c1C2=O)CC(O)(C(C)=O)CC3OC1CC(N(C)C)C(O)C(C)O1 (stereo not drawn) | active |
| COc1ccc(CCNC(=O)c2ccccc2NC(=O)CN2CCN(c3ccccc3O)CC2)cc1 | active |
| CCN(CC)C1=CC(=O)OC12CCCCC2 | active |
| COc1ccc(CNC(=O)O[C@@H]2C[C@H]3C(=O)N(c4ccccc4)C(=O)[C@H]3[C@@]3(CN(S(=O)(=O)c4ccc(C)cc4)C[C@H]3C)[C@@H]2O)cc1OC | inactive |
| O=C(CSc1nc2sc3c(c2c(=O)n1-c1ccccc1)CCCC3)NCc1ccco1 | inactive |
| Cc1ccc2occ(/C=N/NC(=O)c3ccccc3O)c(=O)c2c1 | inactive |
| COc1ccc(NC(=O)CSc2ncnc3[nH]ncc23)cc1 | active |
| O=C1[C@@H]2Cc3c([nH]c4ccccc34)C(c3ccc([N+](=O)[O-])cc3)N2C(=O)CN1C1CC1 (stereo partly drawn) | active |
| CC(C)c1ccc(-c2nc3ccccc3s2)cc1 | active |
| CC(=O)c1c(C)[nH]c(C(=O)COc2cc(C)ccc2C(C)C)c1C | active |

* * *

Run Description: StAR promoter reporter inhibitors, counter-screen for LRH-1 inverse agonist project, cell-based, luminescence, high throughput (AID 651611)
Cond: StAR promoter luciferase reporter counterscreen, at 3.6 µM
Calls of active or inactive are those of the source. Rule as the data show it: active = inhibition above about 28%; inactive = the rest.
Outcomes: active, inactive

| Molecule | Label Value |
| --- | --- |
| Cc1ccc(S(=O)(=O)/N=C2\C=C(Nc3ccc(O)cc3)C(=O)c3ccccc32)cc1 | active |
| COc1cc2c(oc(=O)c3cc(C)cc(OC)c32)c2c(C3OC(C)C(O)C(C)(O)C3O)ccc(O)c12 (stereo unspecified) | active |
| CN(CC(=O)Nc1ccc(N2CCOCC2)cc1)CC(=O)Nc1ccc(N2CCOCC2)cc1 | inactive |
| Cc1cc(C)nc(NC(N)=NCCc2ccccc2)n1 | active |
| Cc1cc(C)nc(SCC(=O)Nc2ccc(N3CCOCC3)c(Cl)c2)n1 | inactive |
| CCCCCc1ccc(OCCCC[n+]2ccc(C)cc2)c(CCCCC)c1 | inactive |

* * *

Tested Target: Nuclear receptor coactivator 3 (Homo sapiens)
Run Description: SRC3 coactivator transcriptional activity inhibitors, confirmation, cell-based, luminescence, quadruplicate (AID 588792)
Cond: HEK293 GAL4-SRC3 luciferase reporter, at 3.6 µM, active compounds read high
Label T when inhibition is at or above 20%; anything below gets F.

| Compound | Tested Target | Label Value |
| --- | --- | --- |
| COc1cccc(N2CCN(CC(=O)Nc3ccccc3C(=O)NCc3ccccc3)CC2)c1 | Nuclear receptor coactivator 3 (Homo sapiens) | F |
| CCOc1ccc(S(=O)(=O)N2CCN(C(=O)COc3ccc(Br)cc3)CC2)cc1 | Nuclear receptor coactivator 3 (Homo sapiens) | F |
| CCOc1ccc(Nc2ncnc3ccc([N+](=O)[O-])cc23)cc1 | Nuclear receptor coactivator 3 (Homo sapiens) | T |
| COc1ccc(C(=O)CN2C(=O)c3ccccc3S2(=O)=O)cc1 | Nuclear receptor coactivator 3 (Homo sapiens) | T |
| OC1c2cc(Br)ccc2N=C2CCCN21 (configuration not stated) | Nuclear receptor coactivator 3 (Homo sapiens) | T |
| Cc1cc2sc3ccc(C#CC4(O)CCCCC4)cc3c(=O)c2cc1C | Nuclear receptor coactivator 3 (Homo sapiens) | T |
| Cc1ccc(CNc2ncnc3ccc(-c4ccoc4C)cc23)o1 | Nuclear receptor coactivator 3 (Homo sapiens) | T |
| CC1CCc2sc3ncnc(N4CCOCC4)c3c2C1 (configuration not stated) | Nuclear receptor coactivator 3 (Homo sapiens) | T |
| N#CCc1c[nH]c2ccc([N+](=O)[O-])cc12 | Nuclear receptor coactivator 3 (Homo sapiens) | T |
| O=C(NCCc1ccccc1F)c1ccc2c(c1)OCCO2 | Nuclear receptor coactivator 3 (Homo sapiens) | T |
| CCN(C(=O)COC(=O)/C(=C/c1ccccc1)n1nnnc1C)C1CCCCC1 | Nuclear receptor coactivator 3 (Homo sapiens) | T |
| Cc1cc(C)nc(NC(N)=NCCc2ccccc2)n1 | Nuclear receptor coactivator 3 (Homo sapiens) | T |
| O=C(c1ccc(S(=O)(=O)Cc2cc(F)ccc2F)c([N+](=O)[O-])c1)N1CCCCC1 | Nuclear receptor coactivator 3 (Homo sapiens) | F |
| CN(c1ncnc(N)c1[N+](=O)[O-])C1CCS(=O)(=O)C1 (configuration not stated) | Nuclear receptor coactivator 3 (Homo sapiens) | T |
| CCN1/C(=C/c2ccc3cc(C)cc(C)c3[n+]2CC)Sc2cc(C)ccc21 | Nuclear receptor coactivator 3 (Homo sapiens) | T |
| COc1ccc(OC)c2nc3c(C(=O)NCCN(C)C)cccc3nc12 | Nuclear receptor coactivator 3 (Homo sapiens) | F |
| COc1cccc(-c2nnc3n2N=C(C(C)(C)C)CS3)c1 | Nuclear receptor coactivator 3 (Homo sapiens) | T |
| Cc1[nH]c2ccccc2c1C(=O)CN1C(=O)NC2(CC(C)CC(C)(C)C2)C1=O (configuration not stated) | Nuclear receptor coactivator 3 (Homo sapiens) | F |
| Cc1cc(C=C2C(=O)c3ccccc3C2=O)c(C)n1-c1cccc(C(=O)O)c1 | Nuclear receptor coactivator 3 (Homo sapiens) | T |
| Nc1ncnc(NCc2ccc(F)cc2)c1[N+](=O)[O-] | Nuclear receptor coactivator 3 (Homo sapiens) | T |
| CCCCC(=O)OCC(=O)C1(O)Cc2c(O)c3c(c(O)c2C(OC2CC(NC(=O)C(F)(F)F)C(O)C(C)O2)C1)C(=O)c1c(OC)cccc1C3=O (configuration not stated) | Nuclear receptor coactivator 3 (Homo sapiens) | T |
| O=C(N/N=C/c1cc(Br)c(Br)s1)c1ccncc1 | Nuclear receptor coactivator 3 (Homo sapiens) | T |
